All figures here come from PubChem BioAssay (NCI).

System: MCF7 breast
Assay: NCI-60 one-dose screen, 48 h
Conditions: 10 µM unless noted
The panel holds about 83,000 compounds, 20% with a hit somewhere; the sample as a whole holds those more often. Calls of active or inactive are those of the source. Rule for the calls: active = growth percent below 10; inactive = the rest.
A correct response names exactly one class from active, inactive

Answered examples (5):
Nc1nc(N)c(-c2ccc(Cl)c(Cl)c2)c(/C=C/c2ccc(S(=O)(=O)F)cc2)n1    inactive
NC(=O)CN1C(=O)C(Cc2ccccc2)N=C(c2cccc(O)c2)c2ccccc21 (stereo not given)    inactive
CC(=O)O[C@H]1CCC2C3CCC4=C/C(=N/O)CCC4(C)C3CCC21C (stereo not given in full)    inactive
N#Cc1ncc(/N=C/c2ccc(N(CCCl)CCCl)cc2)s1    inactive
CC12CCC(=O)C=C1C(O)CC1C2CCC2(C)C(O)CCC12 (stereo not given)    inactive

Query: Recorded call for O=C1NC(=S)NC(=O)C1=Cc1ccccc1 ?
Reply: inactive

Query: Recorded call for O=C(c1cccs1)C1NO[N+]([O-])=C1c1cccs1 (stereo not given) ?
Reply: inactive

Query: Recorded call for O=C(C(=O)N1CCCC1)c1cn(CCCCCn2cc(C(=O)C(=O)N3CCCC3)c3ccccc32)c2ccccc12 ?
Reply: inactive
